Data provenance is ChEMBL document CHEMBL3044988.

# Protocol Details: Partition coefficient, log P of the compound
# Assay type: physicochemical
# Conditions Used: octanol/water; read-out: logP
Parameter Measured: logP

1) CCCCCCc1ccc(Oc2ncccn2)c(O)c1 :: 4.13
2) CCCCCCc1ccc(Oc2ccc(N)cc2)c(O)c1 :: 4.42
3) CCCCCCc1ccc(Oc2ccc(NC(=O)c3ccno3)cc2)c(O)c1 :: 4.86
4) CCCCCCc1ccc(Oc2ccc(CN3CCN(C)CC3)cc2)c(O)c1 :: 5.33
5) CCCCCCc1ccc(Oc2ccccc2CN2CCN(C)CC2)c(O)c1 :: 5.33
6) CCCCCCc1ccc(Oc2ccccc2NC(=O)c2ccno2)c(O)c1 :: 4.86
7) CCCCCCc1ccc(Oc2ccncc2)c(O)c1 :: 4.33
8) CCCCCCc1ccc(Oc2cnccn2)c(O)c1 :: 4.12
9) CCCCCCc1ccc(Oc2ccccc2NC(C)=O)c(O)c1 :: 5
10) CCCCCCc1ccc(Oc2cccc(N)c2)c(O)c1 :: 4.42
11) CCCCCCc1ccc(Oc2cccnc2)c(O)c1 :: 4.33
12) CCCCCCc1ccc(Oc2ccccc2)c(O)c1 :: 5.64
13) CCCCCCc1ccc(Oc2ccc(NC(C)=O)cc2)c(O)c1 :: 5
14) CCCCCCc1ccc(Oc2cccc(NC(C)=O)c2)c(O)c1 :: 5
15) CCCCCCc1ccc(Oc2ccccn2)c(O)c1 :: 5.03
16) CCCCCCc1ccc(Oc2ccc(NC(=O)C(=O)O)cc2)c(O)c1 :: 5.59
17) CCCCCCc1ccc(Oc2cccc(NC(=O)c3ccno3)c2)c(O)c1 :: 4.86
18) CCCCCCc1ccc(Oc2cccc([N+](=O)[O-])c2)c(O)c1 :: 4.49
19) CCCCCCc1ccc(Oc2ccccc2N)c(O)c1 :: 4.42

----------
# Assayed Target: Enoyl-[acyl-carrier-protein] reductase [NADH] (Mycobacterium tuberculosis, UniProt P9WGR1)
# Sequence (P9WGR1 whole entry): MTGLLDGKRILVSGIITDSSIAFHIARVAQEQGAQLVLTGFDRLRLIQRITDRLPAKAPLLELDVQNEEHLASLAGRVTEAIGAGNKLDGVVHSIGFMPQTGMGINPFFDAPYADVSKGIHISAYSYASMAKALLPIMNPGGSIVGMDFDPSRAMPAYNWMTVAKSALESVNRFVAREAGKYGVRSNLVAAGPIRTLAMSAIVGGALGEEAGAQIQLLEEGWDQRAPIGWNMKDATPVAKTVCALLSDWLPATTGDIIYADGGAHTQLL
pIC50: −log10 of the molar value.
Parameter Measured: pIC50

1) CCCCCCc1ccc(Oc2cccc(NC(C)=O)c2)c(O)c1 :: 6.24
